Source: patent US20110039770A1

target: T1, PKC-βII (purified isoform) (Homo sapiens (Human), UniProt P05771 2-621); assay: competitive ELISA, coated purified PKC-βII, vs anti-PKC βII (SC-210); PRE 100 µM
T1 construct: also called PKC-beta II; PKC beta 2
T1 sequence (P05771 other isoform, or with tags, fused parts or gaps limits assumed): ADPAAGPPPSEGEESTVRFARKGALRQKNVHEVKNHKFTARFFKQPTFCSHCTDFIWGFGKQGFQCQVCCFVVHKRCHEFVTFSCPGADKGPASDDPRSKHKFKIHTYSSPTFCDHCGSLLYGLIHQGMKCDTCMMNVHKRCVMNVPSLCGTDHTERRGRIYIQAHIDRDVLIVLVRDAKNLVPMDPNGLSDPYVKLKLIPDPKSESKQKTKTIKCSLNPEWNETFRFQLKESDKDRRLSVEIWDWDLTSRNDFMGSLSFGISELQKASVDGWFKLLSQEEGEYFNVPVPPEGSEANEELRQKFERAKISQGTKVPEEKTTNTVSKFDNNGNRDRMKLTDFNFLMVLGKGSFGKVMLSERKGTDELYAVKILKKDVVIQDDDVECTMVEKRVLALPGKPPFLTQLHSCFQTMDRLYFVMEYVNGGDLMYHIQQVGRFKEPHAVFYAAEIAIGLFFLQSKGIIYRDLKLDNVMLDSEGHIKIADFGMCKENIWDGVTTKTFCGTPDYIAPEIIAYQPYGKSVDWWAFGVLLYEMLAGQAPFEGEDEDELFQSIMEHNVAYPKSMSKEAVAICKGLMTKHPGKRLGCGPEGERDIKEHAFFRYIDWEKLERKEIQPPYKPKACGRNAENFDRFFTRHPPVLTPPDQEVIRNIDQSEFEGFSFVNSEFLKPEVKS
MEASURED_PARAMETER: relative binding capacity (100-%n, DMSO subtracted) (%)

{"BINDER": "Ac-RDAQNLI-NH2 (Ac-RDAQNLI-NH2; also called peptide PRE 13) [PRE 13]", "VALUE_UNITS": "%", "MEASUREMENT": 1.63}
{"BINDER": "Ac-KDAQNLIGISI-NH2 (also called peptide PRE 4) [PRE 4]", "VALUE_UNITS": "%", "MEASUREMENT": 13.5}
{"BINDER": "Ac-KDAQNLI-NH2 (Ac-KDAQNLI-NH2; also called peptide PRE 12) [PRE 12]", "VALUE_UNITS": "%", "MEASUREMENT": 0}
{"BINDER": "Ac-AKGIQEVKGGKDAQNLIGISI-NH2 (also called peptide PRE 5) [PRE 5]", "VALUE_UNITS": "%", "MEASUREMENT": 0}
{"BINDER": "Ac-KDANQLIGISI-NH2 (also called peptide PRE 6) [PRE 6]", "VALUE_UNITS": "%", "MEASUREMENT": 0}
{"BINDER": "Ac-ISIGILQNADK-NH2 (also called peptide PRE 7) [PRE 7]", "VALUE_UNITS": "%", "MEASUREMENT": 11.1}
{"BINDER": "ILEDKGGDAQNLIGISI (also called peptide PRE 8) [PRE 8]", "VALUE_UNITS": "%", "MEASUREMENT": 0}
